Assayed Target: Vitamin D3 receptor (Homo sapiens)
Method Notes: Inhibitors of the vitamin D receptor (VDR): qHTS; as to max response, negative = inhibition: % is scaled to controls: 0 for no effect and ±100 for the full control effect
Cond: VDR-SRC2-3 peptide fluorescence polarization, 2 h; hits give low values
From the text: The vitamin D receptor (VDR) is a ligand-activated transcription factor and is partially responsible for the regulation of the endocrine system. […] In a collaboration between the University of Wisconsin, Milwaukee and the NIH Chemical Genomics Center (NCGC) a HTS-compatible enzymatic assay was developed. The assay uses fluorescence polarization as its read-out to measure the inhibition between VDR and coregulator peptide SRC2-3 exerted by small molecules. […]
The campaign covered roughly 400,000 compounds. About 3,700 (0.93%) were called active. Another 3% or so got no clear call; they are omitted. Only a selection was taken, and actives are over-represented in it overall.
Experimental Readout: max response, negative = inhibition (%)

{"Line Notation": "COc1ccc(-c2onc(C)c2C)cc1S(=O)(=O)NCC1CCN(Cc2cccc(F)c2)CC1", "Experimental Readout": "max response, negative = inhibition", "Unit Label": "%", "Obs Value": -0.795}
{"Line Notation": "COc1ccc(-c2nc3cnc(Oc4ccccc4)nc3n(Cc3cccs3)c2=O)cc1", "Experimental Readout": "max response, negative = inhibition", "Unit Label": "%", "Obs Value": -0.524}
{"Line Notation": "O=C(/C=C(O)/C=C/c1ccc(O)cc1)/C=C/c1ccc(O)cc1", "Experimental Readout": "max response, negative = inhibition", "Unit Label": "%", "Obs Value": -24.8}
{"Line Notation": "Cc1nn2c(=O)cc(COC(=O)c3cccc(NC(=O)COc4ccccc4Cl)c3)nc2s1", "Experimental Readout": "max response, negative = inhibition", "Unit Label": "%", "Obs Value": 9.23}
{"Line Notation": "c1ccc(Cn2nnc3c(N4CCCCC4)ncnc32)cc1", "Experimental Readout": "max response, negative = inhibition", "Unit Label": "%", "Obs Value": 7.87}
{"Line Notation": "CCC(=O)Nc1ccc2nc(SCC(=O)N3CCc4ccccc43)sc2c1", "Experimental Readout": "max response, negative = inhibition", "Unit Label": "%", "Obs Value": 13}
{"Line Notation": "CCc1nnc(NC(=O)C2CCN(C(=O)c3ccccc3C)CC2)s1", "Experimental Readout": "max response, negative = inhibition", "Unit Label": "%", "Obs Value": 0.925}
{"Line Notation": "CC(C)(C)NC(=O)NC(=O)COC(=O)C1c2ccccc2Oc2ccccc21", "Experimental Readout": "max response, negative = inhibition", "Unit Label": "%", "Obs Value": -16.6}
{"Line Notation": "CNC(=O)c1csc(-c2ccccc2)n1", "Experimental Readout": "max response, negative = inhibition", "Unit Label": "%", "Obs Value": 4.33}
{"Line Notation": "O=C(CSc1nnc(CNC(=O)c2ccccc2)n1-c1ccc(F)cc1)Nc1ccccc1F", "Experimental Readout": "max response, negative = inhibition", "Unit Label": "%", "Obs Value": 2.71}

----------
Known Potency of a selection of compounds
Assayed Target: Vitamin D3 receptor (Homo sapiens) (UniProt P11473)
Sequence (P11473 whole entry, looked up): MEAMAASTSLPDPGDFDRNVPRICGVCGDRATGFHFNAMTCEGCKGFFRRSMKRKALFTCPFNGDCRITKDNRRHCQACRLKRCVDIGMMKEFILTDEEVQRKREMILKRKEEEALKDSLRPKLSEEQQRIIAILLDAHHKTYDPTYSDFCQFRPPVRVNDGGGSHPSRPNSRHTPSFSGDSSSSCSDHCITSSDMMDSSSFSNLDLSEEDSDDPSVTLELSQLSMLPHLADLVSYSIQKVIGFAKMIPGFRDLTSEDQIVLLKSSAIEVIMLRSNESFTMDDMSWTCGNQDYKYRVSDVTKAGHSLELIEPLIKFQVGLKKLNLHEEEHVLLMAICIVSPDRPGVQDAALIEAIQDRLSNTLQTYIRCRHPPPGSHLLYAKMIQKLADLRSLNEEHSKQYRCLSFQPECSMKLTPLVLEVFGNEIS
Method Notes: Inhibitors of the vitamin D receptor (VDR): qHTS; also: potency is read from the fitted curve at half-maximal effect
Cond: VDR-SRC2-3 peptide fluorescence polarization, 2 h
Source text: The vitamin D receptor (VDR) is a ligand-activated transcription factor and is partially responsible for the regulation of the endocrine system. […] In a collaboration between the University of Wisconsin, Milwaukee and the NIH Chemical Genomics Center (NCGC) a HTS-compatible enzymatic assay was developed. The assay uses fluorescence polarization as its read-out to measure the inhibition between VDR and coregulator peptide SRC2-3 exerted by small molecules. […]
Screen size: about 400,000 compounds; about 3,700 (0.93%) were called active. Roughly 3% stayed inconclusive and do not appear here. Shown is part of a subset that was picked to be rich in actives.
Experimental Readout: Potency

{"Compound": "Nc1ccc2nc3c(=O)[nH]c(=S)[nH]c3nc2c1", "Obs Value": "79.4 µM (active)"}
{"Compound": "Cn1c(=O)[nH]c(=O)c2c1[nH]c(=S)n2Cc1ccccc1", "Obs Value": "89.1 µM (active)"}
{"Compound": "N#Cc1c(N2CCCCC2)nc(N)c2c(N)nc(SCC(=O)O)cc12", "Obs Value": "50.1 µM (active)"}
{"Compound": "CCOc1cc(C(=S)N2CCOCC2)ccc1O", "Obs Value": "79.4 µM (active)"}
{"Compound": "O=C(Nc1ccccc1Cl)/C(Cl)=C(\\Cl)S(=O)c1ccccc1 (configuration not stated)", "Obs Value": "3.98 µM (active)"}
{"Compound": "CC1=C/C(=N\\OS(=O)(=O)c2ccccc2)C=CC1=O", "Obs Value": "31.6 µM (active)"}
{"Compound": "Nc1ccccc1SC(C[N+](=O)[O-])c1ccccc1 (configuration not stated)", "Obs Value": "3.55 µM (active)"}
{"Compound": "O=c1cc(CO)oc(C(Nc2cccc([N+](=O)[O-])c2)c2ccccn2)c1O (configuration not stated)", "Obs Value": "79.4 µM (active)"}
{"Compound": "FC(F)(F)c1ccccc1-c1nc(-n2ccnc2)c2ccccc2n1", "Obs Value": "50.1 µM (active)"}
{"Compound": "COCCNC(=S)Nc1cc(S(=O)(=O)N2CCOCC2)ccc1N1CCCCC1", "Obs Value": "35.5 µM (active)"}
{"Compound": "Cc1ccc(-c2ccc(/C=N/NC(=O)CN3CCOCC3)o2)cc1[N+](=O)[O-]", "Obs Value": "2.51 µM (active)"}
{"Compound": "CC(C)Oc1ccc(CC(=O)NNC(=S)Nc2ccc(Br)cc2)cc1", "Obs Value": "70.8 µM (active)"}
{"Compound": "CCOC(=O)C1Sc2[nH]c(=O)sc2C(c2ccc(Cl)cc2)C1C(=O)OCC (configuration not stated)", "Obs Value": "79.4 µM (active)"}
{"Compound": "COc1ccccc1-c1cc(C(F)(F)F)nc(S(=O)(=O)CCCC(=O)Nc2ccc(F)cc2F)n1", "Obs Value": "56.2 µM (active)"}
{"Compound": "Cc1cccc(C=CC(=O)c2ccc(Cl)cc2)c1", "Obs Value": "20 µM (active)"}
{"Compound": "CCOc1ccc(-n2c(N)c(C(=O)NCC3CCCO3)sc2=S)cc1 (configuration not stated)", "Obs Value": "79.4 µM (active)"}
{"Compound": "COc1ccc(Nc2nc(-c3cccnc3)nc3ccccc23)cn1", "Obs Value": "70.8 µM (active)"}

----------
Assayed Target: Vitamin D3 receptor (Homo sapiens)
Method Notes: Inhibitors of the vitamin D receptor (VDR): qHTS; as to max response, negative = inhibition: % is scaled to controls: 0 for no effect and ±100 for the full control effect
Cond: VDR-SRC2-3 peptide fluorescence polarization, 2 h; hits give low values
Hit rate of the full screen: of about 400,000 compounds, about 3,700 (0.93%) were called active. Roughly 3% stayed inconclusive and do not appear here. The full list was thinned out, with actives kept by preference.
The following molecules are listed with their measured max response, negative = inhibition values.

{"Molecule": "Cc1ccccc1CCNC(=O)C1CCN(c2nc3ccccc3nc2C(F)(F)F)CC1", "Assayed Target": "Vitamin D3 receptor (Homo sapiens)", "max response, negative = inhibition / %": 5.88}
{"Molecule": "O=C(NCc1ccccc1)c1ccc2c(c1)nc1n2CCCCC1", "Assayed Target": "Vitamin D3 receptor (Homo sapiens)", "max response, negative = inhibition / %": 12.2}
{"Molecule": "Cc1cccn2c(=O)c(C(=O)NC(C)c3ccccc3)cnc12 (stereo unspecified)", "Assayed Target": "Vitamin D3 receptor (Homo sapiens)", "max response, negative = inhibition / %": -16}
{"Molecule": "O=C(CN1CCSc2ccccc21)N1CCN(c2ccccc2)CC1", "Assayed Target": "Vitamin D3 receptor (Homo sapiens)", "max response, negative = inhibition / %": 16.3}
{"Molecule": "COc1ccc(CCC(=O)c2c(O)cc(OC3OC(CO)C(O)C(O)C3O[C@@H]3OC(C)C(O)C(O)C3O)cc2O)cc1O (stereo partly specified)", "Assayed Target": "Vitamin D3 receptor (Homo sapiens)", "max response, negative = inhibition / %": -4.57}
{"Molecule": "CCc1ccc(NC(=O)CN2CCSc3ccc(S(=O)(=O)N4CCCC4)cc32)cc1", "Assayed Target": "Vitamin D3 receptor (Homo sapiens)", "max response, negative = inhibition / %": 9.86}

----------
Assayed Target: Vitamin D3 receptor (Homo sapiens)
Method Notes: Inhibitors of the vitamin D receptor (VDR): qHTS; as to max response, negative = inhibition: % is scaled to controls: 0 for no effect and ±100 for the full control effect
Cond: VDR-SRC2-3 peptide fluorescence polarization, 2 h; hits give low values
Hit rate of the full screen: of about 400,000 compounds, about 3,700 (0.93%) were called active. Another 3% or so got no clear call; they are omitted. The entries come from a sample that favours actives as a whole.
Reported max response, negative = inhibition by item:

{"Molecule": "CCN(CC)CCNC(=O)Cn1ncc2c3ccccc3n(Cc3ccccc3C)c2c1=O", "Assayed Target": "Vitamin D3 receptor (Homo sapiens)", "max response, negative = inhibition (%)": 13.4}
{"Molecule": "CC(=O)NCC(O)c1ccc([N+](=O)[O-])cc1 (centres undefined)", "Assayed Target": "Vitamin D3 receptor (Homo sapiens)", "max response, negative = inhibition (%)": -16.9}
{"Molecule": "Cc1csc(NC(=O)c2ccc(-c3ccc(Cl)cc3Cl)o2)n1", "Assayed Target": "Vitamin D3 receptor (Homo sapiens)", "max response, negative = inhibition (%)": -1.72}
{"Molecule": "COCCNC(=O)CSc1c(C)cnc2c1c(=O)n(C)c(=O)n2C", "Assayed Target": "Vitamin D3 receptor (Homo sapiens)", "max response, negative = inhibition (%)": 8.06}
